Molecular target: GST-hMDM2 (aa1-188) (Homo sapiens, UniProt Q00987)
Construct: The amino acid residues 1-188 of human MDM2 were expressed as GST-hMDM2 fusion protein
Sequence (Q00987 1-188): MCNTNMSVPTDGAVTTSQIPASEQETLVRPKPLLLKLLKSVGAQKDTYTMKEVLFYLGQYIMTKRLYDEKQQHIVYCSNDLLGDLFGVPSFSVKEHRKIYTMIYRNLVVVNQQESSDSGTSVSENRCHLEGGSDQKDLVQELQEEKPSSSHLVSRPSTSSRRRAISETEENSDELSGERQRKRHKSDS
Experiment: Homogeneous time resolved fluorometry (HTRF assay), hMDM2/p53 interaction
Conditions: HTRF analysis; GST-hMDM2 (aa1-188) / biotinylated-p53 (aa1-83)
Listed here: items and their measured IC50.

1) CC(C)[C@@H](CS(=O)(=NC(=O)N1CCOCC1)C(C)C)N1C(=O)[C@@](C)(CC(=O)O)C[C@H](c2cccc(Cl)c2)[C@H]1c1ccc(Cl)cc1 (stereo partly shown); < 10 nM

Inquiry: Provide value of IC50 for this record tested with GST-hMDM2 (aa1-188) (Homo sapiens, UniProt Q00987): CC(C)[C@@H](CS(=N)(=O)C(C)C)N1C(=O)[C@@](C)(CC(=O)Nc2ccc(F)c(Br)c2)C[C@H](c2cccc(Cl)c2)[C@H]1c1ccc(Cl)cc1 (stereo partly shown)
Reply text: > 100 nM

Inquiry: Moving on to the next compound: CC(C)[C@@H](CS(=O)(=O)C(C)C)N1C(=O)[C@@](C)(CC(=O)NS(=N)(=O)C2(C)CC2)C[C@H](c2cccc(Cl)c2)[C@H]1c1ccc(Cl)cc1 (stereo partly shown) [Compound 028A]
Reply text: 10 to 100 nM

Inquiry: Same again, this time with CC(C)[C@@H](CS(=O)(=O)C(C)C)N1C(=O)[C@@](C)(CC(=O)NS(=N)(=O)C2(C)CC2)C[C@H](c2cccc(Cl)c2)[C@H]1c1ccc(Cl)cc1 (stereo partly shown) [Compound 028B]
Reply text: 10 to 100 nM

Inquiry: Please give the result for Cc1ccc(S(=O)(=O)NC(=O)C[C@@]2(C)C[C@H](c3cccc(Cl)c3)[C@@H](c3ccc(Cl)cc3)N([C@H](CS(=N)(=O)C(C)C)C(C)C)C2=O)cc1 (stereo partly shown) too.
Reply text: 10 to 100 nM

Inquiry: Also check CCN=S(=O)(C[C@H](C(C)C)N1C(=O)[C@@](C)(CC(=O)O)C[C@H](c2cccc(Cl)c2)[C@H]1c1ccc(Cl)cc1)C(C)C (stereo partly shown)
Reply text: < 10 nM

Inquiry: Then what about the compound CCOC(=O)N=S(=O)(C[C@H](C(C)C)N1C(=O)[C@@](C)(CC(=O)O)C[C@H](c2cccc(Cl)c2)[C@H]1c1ccc(Cl)cc1)C(C)C (stereo partly shown) ?
Reply text: < 10 nM

Inquiry: What do you get for COc1cc(NC(=O)C[C@@]2(C)C[C@H](c3cccc(Cl)c3)[C@@H](c3ccc(Cl)cc3)N([C@H](CS(=O)(=NC(=O)N(C)C)C(C)C)C(C)C)C2=O)ccc1C(=O)O (stereo partly shown) ?
Reply text: < 10 nM

Inquiry: Can you handle COc1cc(NC(=O)C[C@@]2(C)C[C@H](c3cccc(Cl)c3)[C@@H](c3ccc(Cl)cc3)N([C@H](CS(=N)(=O)C(C)C)C(C)C)C2=O)ccc1C(=O)O (stereo partly shown) next?
Reply text: < 10 nM

Inquiry: Lookup COc1cc(NC(=O)C[C@@]2(C)C[C@H](c3cccc(Cl)c3)[C@@H](c3ccc(Cl)cc3)N([C@H](CS(=O)(=NC(N)=O)C(C)C)C(C)C)C2=O)ccc1C(=O)O (stereo partly shown)
Reply text: < 10 nM

Inquiry: Okay, and "COc1cc(C(=O)O)ccc1NC(=O)C[C@@]1(C)C[C@H](c2cccc(Cl)c2)[C@@H](c2ccc(Cl)cc2)N([C@H](C[S@](=O)(=NC(C)=O)C(C)C)C(C)C)C1=O" ?
Reply text: < 10 nM

Inquiry: Further, for CC(C)[C@@H](CS(=N)(=O)C(C)C)N1C(=O)[C@@](C)(CC(=O)NS(=O)(=O)C2(C)CC2)C[C@H](c2cccc(Cl)c2)[C@H]1c1ccc(Cl)cc1 (stereo partly shown) ?
Reply text: 10 to 100 nM

Inquiry: And what about the compound "C=CC(=O)N=[S@@](=O)(C[C@H](C(C)C)N1C(=O)[C@@](C)(CC(=O)O)C[C@H](c2cccc(Cl)c2)[C@H]1c1ccc(Cl)cc1)C(C)C" ?
Reply text: 10 to 100 nM

Inquiry: Entry "COc1cc(C(=O)O)ccc1NC(=O)C[C@@]1(C)C[C@H](c2cccc(Cl)c2)[C@@H](c2ccc(Cl)cc2)N([C@H](C[S@](=O)(=NC(N)=O)C(C)C)C(C)C)C1=O" please
Reply text: < 10 nM

* * *

System: p21 transcripts in SJSA-1 cells
Assay: p21 assay (QRT-PCR of p21 transcripts in SJSA-1 cells)
Type: cell-based, human
Settings: Homo sapiens, SJSA-1, 7 h, cell assay (SJSA-1 cell); p21 induction, 7 hours incubation
Source text: Inhibition of the interaction between hMDM2 and p53 results in the activation of the p53 pathway via the stabilization and accumulation of p53. P53 activates the transcription of many genes, one of which is p21<WAFT/CIP1>. To evaluate the potency of hMDM2 inhibitors, quantitative reverse transcription polymerase chain reaction (QRT PCR) was used to measure the level of p21 transcripts of compound related cells relative to that of control cells treated with dimethyl sulfoxide (DMSO). […]
pIC50: −log10 of the molar value.
property: pIC50

1. CC(C)[C@@H](CS(=N)(=O)C(C)C)N1C(=O)[C@@](C)(CC(=O)Nc2ccccc2)C[C@H](c2cccc(Cl)c2)[C@H]1c1ccc(Cl)cc1 (stereo partly drawn); 5.00 to 6.00
2. CC(C)[C@@H](CS(=N)(=O)C(C)C)N1C(=O)[C@@](C)(CC(=O)Nc2ccc(C(=O)O)cc2)C[C@H](c2cccc(Cl)c2)[C@H]1c1ccc(Cl)cc1 (stereo partly drawn); 5.00 to 6.00
3. CC(C)[C@@H](CS(=N)(=O)C(C)C)N1C(=O)[C@@](C)(CC(=O)NS(C)(=O)=O)C[C@H](c2cccc(Cl)c2)[C@H]1c1ccc(Cl)cc1 (stereo partly drawn); 5.00 to 6.00

Inquiry: Which pIC50 reading was recorded for the compound CC(C)[C@@H](CS(=N)(=O)C(C)C)N1C(=O)[C@@](C)(CC(=O)NS(=O)(=O)c2ccccc2)C[C@H](c2cccc(Cl)c2)[C@H]1c1ccc(Cl)cc1 (stereo partly drawn) ?
Reply text: 5.00 to 6.00

* * *

Molecular target: GST-hMDM2 (aa1-188) (Homo sapiens)
Construct: The amino acid residues 1-188 of human MDM2 were expressed as GST-hMDM2 fusion protein
Assay: Homogeneous time resolved fluorometry (HTRF assay), hMDM2/p53 interaction
Details: HTRF analysis; GST-hMDM2 (aa1-188) / biotinylated-p53 (aa1-83)
pIC50: −log10 of the molar value.
# reported pIC50; entries follow

Example entries and their recorded answers appear below.
1. COc1cc(NC(=O)C[C@@]2(C)C[C@H](c3cccc(Cl)c3)[C@@H](c3ccc(Cl)cc3)N([C@H](CS(=O)(=NC(=O)N3CCCC3)C(C)C)C(C)C)C2=O)ccc1C(=O)O (some centres unmarked) [Compound 051]; > 8.00
2. CC(C)[C@@H](CS(=N)(=O)C(C)C)N1C(=O)[C@@](C)(CC(=O)Nc2ccc(C(=O)O)cc2)C[C@H](c2cccc(Cl)c2)[C@H]1c1ccc(Cl)cc1 (some centres unmarked) [Compound 007]; > 8.00
3. Cc1ccc(S(=N)(=O)NC(=O)C[C@@]2(C)C[C@H](c3cccc(Cl)c3)[C@@H](c3ccc(Cl)cc3)N([C@H](CS(=O)(=O)C(C)C)C(C)C)C2=O)cc1 (some centres unmarked) [Compound 029]; < 7.00
4. CC(C)[C@@H](CS(=N)(=O)C(C)C)N1C(=O)[C@@](C)(CC(=O)Nc2cccc(C(F)(F)F)c2)C[C@H](c2cccc(Cl)c2)[C@H]1c1ccc(Cl)cc1 (some centres unmarked) [Compound 016]; < 7.00

For the next question, use this compound.
Inquiry: Which pIC50 is listed for CC(C)[C@@H](CS(=O)(=NC(N)=O)C(C)C)N1C(=O)[C@@](C)(CC(=O)O)C[C@H](c2cccc(Cl)c2)[C@H]1c1ccc(Cl)cc1 (some centres unmarked) [Compound 034] ?
Reply text: > 8.00

* * *

Target: GST-hMDM2 (aa1-188) (Homo sapiens, UniProt Q00987)
Construct: The amino acid residues 1-188 of human MDM2 were expressed as GST-hMDM2 fusion protein; made in house; host or cells: E. coli
Experiment: Homogeneous time resolved fluorometry (HTRF assay), hMDM2/p53 interaction
Assay type: binding
Conditions: HTRF analysis; GST-hMDM2 (aa1-188) / biotinylated-p53 (aa1-83)
property: IC50

Inquiry: Given the compound CC(C)[C@@H](CS(=N)(=O)C(C)C)N1C(=O)[C@@](C)(CC(=O)Nc2ccccc2)C[C@H](c2cccc(Cl)c2)[C@H]1c1ccc(Cl)cc1 (some centres unmarked) [Compound 015] , what is its reported IC50?
Reply text: 0.01 to 0.1 µM

Inquiry: Would you kindly repeat that for CC(C)[C@@H](CS(=N)(=O)C(C)C)N1C(=O)[C@@](C)(CC(=O)O)C[C@H](c2cccc(Cl)c2)[C@H]1c1ccc(Cl)cc1 (some centres unmarked) [Compound 002] ?
Reply text: < 0.01 µM

Inquiry: Another compound: CC(C)[C@@H](CS(=O)(=NC(=O)N1CCCC1)C(C)C)N1C(=O)[C@@](C)(CC(=O)O)C[C@H](c2cccc(Cl)c2)[C@H]1c1ccc(Cl)cc1 (some centres unmarked) [Compound 047]
Reply text: < 0.01 µM

Inquiry: Do the same for CC(C)[C@@H](CS(=N)(=O)C(C)C)N1C(=O)[C@@](C)(CC(=O)N[C@H]2CC[C@H](O)CC2)C[C@H](c2cccc(Cl)c2)[C@H]1c1ccc(Cl)cc1 (some centres unmarked) [Compound 011] please
Reply text: 0.01 to 0.1 µM

Inquiry: Likewise for CC(C)[C@@H](CS(=N)(=O)C(C)C)N1C(=O)[C@@](C)(CC(=O)Nc2ccc(F)cc2Br)C[C@H](c2cccc(Cl)c2)[C@H]1c1ccc(Cl)cc1 (some centres unmarked) [Compound 014] ?
Reply text: > 0.1 µM
